Just for reference, patent US20260263646A1 is where these values come from.

biological target: T1, PSMA (commercial, Sino Bio cat #15877-H07H) (UniProt Q04609 44-750); assay: SDS-PAGE, overnight 37C, ~7:1 sdAb:PSMA
T1 construct: also called receptor
T1 sequence (Q04609 44-750 limits assumed): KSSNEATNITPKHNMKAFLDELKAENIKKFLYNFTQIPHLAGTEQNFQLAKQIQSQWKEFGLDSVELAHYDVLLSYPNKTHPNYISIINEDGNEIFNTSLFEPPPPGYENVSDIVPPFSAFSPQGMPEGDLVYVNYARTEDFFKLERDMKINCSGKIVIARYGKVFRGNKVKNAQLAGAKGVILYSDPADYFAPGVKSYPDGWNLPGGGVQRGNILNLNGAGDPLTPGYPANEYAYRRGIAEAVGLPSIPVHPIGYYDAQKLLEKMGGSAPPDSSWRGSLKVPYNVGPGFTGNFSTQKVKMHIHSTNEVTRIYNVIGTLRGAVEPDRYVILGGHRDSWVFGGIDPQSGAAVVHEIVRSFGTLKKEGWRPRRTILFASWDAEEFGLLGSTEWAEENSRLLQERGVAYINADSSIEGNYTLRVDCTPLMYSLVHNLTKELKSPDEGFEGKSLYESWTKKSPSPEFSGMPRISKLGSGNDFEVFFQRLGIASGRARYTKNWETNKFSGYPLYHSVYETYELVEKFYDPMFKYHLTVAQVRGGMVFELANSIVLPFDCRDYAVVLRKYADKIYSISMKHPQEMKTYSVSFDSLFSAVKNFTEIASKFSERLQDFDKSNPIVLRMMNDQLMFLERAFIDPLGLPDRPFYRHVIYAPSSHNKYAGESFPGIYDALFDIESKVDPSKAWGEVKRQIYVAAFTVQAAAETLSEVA
This section presents binders with their documented crosslinking efficiency values.

C1-111FSY (VHH, not fully specified; FSY at 111, plus C-terminal His6) VHH: QVQLQESGGGSVQAGGSLRLSCTAPGYTDSNYYMSWFRQAPGKEREWVAGVNTGRGSTSYADSVKGRFTISQDNAKNTMFLQMNSLKPEDTAIYYCAVAACHFCDSLPKTXDEYILWGQGTQVTVSS; < 50%
C1-105FSY (VHH, not fully specified; FSY at 105, plus C-terminal His6) VHH: QVQLQESGGGSVQAGGSLRLSCTAPGYTDSNYYMSWFRQAPGKEREWVAGVNTGRGSTSYADSVKGRFTISQDNAKNTMFLQMNSLKPEDTAIYYCAVAACHFCXSLPKTQDEYILWGQGTQVTVSS; < 50%

Problem: Report crosslinking efficiency for C1-103FSY (VHH, not fully specified; FSY at 103, plus C-terminal His6) VHH: QVQLQESGGGSVQAGGSLRLSCTAPGYTDSNYYMSWFRQAPGKEREWVAGVNTGRGSTSYADSVKGRFTISQDNAKNTMFLQMNSLKPEDTAIYYCAVAACHXCDSLPKTQDEYILWGQGTQVTVSS please.
Result: < 50%
